These measurements were taken from ChEMBL document CHEMBL1201862.

- System: P388;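 further: compound exposure lasted 48 hours before growth was measured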
- Run description: cells
- Assay type: functional
- Condition details: Mus musculus
Active and inactive are the calls of the source. No stated cut-off is given here; in the data, active = GI50 up to about 1.1 µM and inactive = higher. *1 amine or outer side, *2 acyl side, *3 side chain or, on linkers, in order; H or OH if unused. Where a SMILES comes first, the peptide text is derived from it. Bridges are numbered along the chain shown (N, C = ends). [ ]: non-standard residue; d: D form. The star is where a group is joined. X56 = CC(C)C(C)C(C(=O)[*:2])N(C)[*:1]; Picolinoyl(3-OH) = O=C(c1ncccc1O)*; NMePhg = CN[CH](C(=O)O)c1ccccc1; Hyp = O=C(O)[CH]1C[CH](O)CN1; Sar = CNCC(=O)O
Property label: GI50

Worked examples, 3 molecules total:
- Molecule: "COc1ccc2[nH]cc(/C=C(/C)c3ccncc3)c2c1"
  GI50: "3.07 µM (inactive)"
- Molecule: "CSCC[C@@H]1C(=O)N(C)[C@H](C(C)(C)C)N1C(=O)c1ccccc1"
  GI50: "> 100 µM (inactive)"
- Molecule: "CC(C)CC1NC(=O)C(NC(=O)c2ncccc2O)C(C)OC(=O)C(c2ccccc2)N(C)C(=O)C(C)NC(=O)C(C(C)C(C)C)N(C)C(=O)CN(C)C(=O)C2CC(O)CN2C1=O (centres undefined) ({Picolinoyl(3-OH)}-TL[Hyp][Sar][X56]A[NMePhg]; ester 1-C; configuration not given here)"
  GI50: "6.21 µM (inactive)"

We next turn to a different molecule, shown below.
Hi! What's the reported GI50 for `CCCSCC(P(=O)(O)O)P(=O)(O)O.NC1CCCCC1` on P388?
> 100 µM (inactive)
